test system: HCT-116 colon; test: NCI tumour cell line growth inhibition, 48 h
Reported GI50 values for the following molecules.
PROPERTY_NAME: GI50

O=[N+]([O-])c1ccc(Oc2cccnc2)c([N+](=O)[O-])c1 = 2.43 µM
[Ce+3].[Cl-].[O-]/N=C(\c1ccccc1)c1ccccn1.[O-]/N=C(\c1ccccc1)c1ccccn1.[O-]/N=C(\c1ccccc1)c1ccccn1 = 33.8 µM
CCS(=O)(=O)c1ccc(OC)c(Nc2ncc(-c3cccc(-c4ccccc4F)c3)o2)c1 = > 22.9 µM
O=C(c1ccc(F)c(F)c1Nc1ccc(I)cc1F)N1CC(O)([C@H]2CCCCN2)C1 = 0.649 µM

Reference source for all entries: PubChem BioAssay (NCI)
